Numbers sourced from patent US20260035456A1.

Quick list: Kd per entry.
# MEASURED_ON: T1, biotin-labeled human ADM (human, not fully specified; biotin label (named human ADM-C-biotin in Example 1.4; position of the biotin not stated for the other lots))
# T1 construct: Synthetic peptide; also called human ADM-C-biotin; hADM-Biotin
# T1 peptide: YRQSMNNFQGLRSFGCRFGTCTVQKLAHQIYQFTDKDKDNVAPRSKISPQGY
# MEASUREMENT_PROTOCOL: BLI (Octet RED96e), as in Example 3
Only the number, expressed in nM, is required.

Past entries and their recorded results:
BINDER: Ab2004.Am35 (IgG1 antibody) (antibody, V domains shown, Expressed in CHO cells, human IgG1/kappa) VH: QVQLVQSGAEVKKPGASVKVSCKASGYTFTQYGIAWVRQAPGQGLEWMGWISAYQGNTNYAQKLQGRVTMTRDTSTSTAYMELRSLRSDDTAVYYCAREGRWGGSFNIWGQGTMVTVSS VL: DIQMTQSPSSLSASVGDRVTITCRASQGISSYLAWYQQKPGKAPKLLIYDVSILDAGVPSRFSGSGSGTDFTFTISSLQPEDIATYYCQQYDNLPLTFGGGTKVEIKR
UNITS: nM
Kd: 0.281
--
BINDER: Ab2004.Am34 (IgG1 antibody) (antibody, V domains shown, Expressed in CHO cells, human IgG1/kappa) VH: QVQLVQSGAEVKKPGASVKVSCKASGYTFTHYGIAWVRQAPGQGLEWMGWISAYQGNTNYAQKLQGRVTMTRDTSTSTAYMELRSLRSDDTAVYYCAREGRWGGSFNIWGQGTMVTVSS VL: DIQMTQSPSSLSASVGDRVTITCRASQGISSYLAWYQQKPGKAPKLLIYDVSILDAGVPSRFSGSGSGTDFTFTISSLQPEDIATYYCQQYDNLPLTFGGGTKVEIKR
UNITS: nM
Kd: 0.154
--
BINDER: Ab2004.Am38 (IgG1 antibody) (antibody, V domains shown, Expressed in CHO cells, human IgG1/kappa) VH: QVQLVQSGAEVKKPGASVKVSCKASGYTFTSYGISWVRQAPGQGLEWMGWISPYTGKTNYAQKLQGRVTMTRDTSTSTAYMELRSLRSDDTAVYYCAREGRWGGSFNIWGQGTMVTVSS VL: DIQMTQSPSSLSASVGDRVTITCRASQGISSYLAWYQQKPGKAPKLLIYDTSDLDTGVPSRFSGSGSGTDFTFTISSLQPEDIATYYCQQYDNLPLTFGGGTKVEIKR
UNITS: nM
Kd: 0.255
--
BINDER: fully human antibody Ab2004.Am01 (expressed antibody) (antibody, V domains shown, also called parent antibody Ab2004.Am01) VH: QVQLVQSGAEVKKPGASVKVSCKASGYTFTSYGISWVRQAPGQGLEWMGWISAYQGNTNYAQKLQGRVTMTRDTSTSTAYMELRSLRSDDTAVYYCAREGRWGGSFNIWGQGTMVTVSS VL: DIQMTQSPSSLSASVGDRVTITCRASQGISSYLAWYQQKPGKAPKLLIYDASNLETGVPSRFSGSGSGTDFTFTISSLQPEDIATYYCQQYDNLPLTFGGGTKVEIK
UNITS: nM
Kd: 0.766

Exam item: Entry under review: Ab2004.Am33 (IgG1 antibody) (antibody, V domains shown, Expressed in CHO cells, human IgG1/kappa) VH: QVQLVQSGAEVKKPGASVKVSCKASGYTFTSYGISWVRQAPGQGLEWMGWISPYSGNTNYAQKLQGRVTMTRDTSTSTAYMELRSLRSDDTAVYYCAREGRWGGSFNIWGQGTMVTVSS VL: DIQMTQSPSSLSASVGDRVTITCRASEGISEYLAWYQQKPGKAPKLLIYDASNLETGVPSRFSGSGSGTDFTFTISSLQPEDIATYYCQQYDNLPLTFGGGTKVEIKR . Reported Kd?
Marked response: 0.316
